Reported values of CC50 for individual entries
- Tested on: PBMC
- Test Method Notes: Cytotoxicity against human PBMC cells assessed as inhibition of cell proliferation incubated for 2 to 4 days by CellTiter 96 non-radioactive cell proliferation assay
- Type: toxicity, cell-based
- Condition Info: time 2-4 day

Record excerpt, results attached:
| Structure Smiles | Measurement Target | CC50 |
| --- | --- | --- |
| CCC(CC)COC(=O)[C@H](C)N[P@](=O)(OC[C@H]1O[C@@](C#N)(c2ccc3c(N)ncnn23)[C@H](O)[C@@H]1O)Oc1ccccc1 | PBMC | 2 µM |
| CC1=CC[C@H]2[C@H](C1)c1c(O)cc(/C=C/c3ccc(O)cc3)cc1OC2(C)C | PBMC | 53.4 µM |

Below: the item to evaluate.
Query :: May I ask what CC50 has been recorded for `CC1=CC[C@H]2[C@H](C1)c1c(/C=C/c3ccc(O)cc3)cc(O)cc1OC2(C)C` ?
Result :: 60.4 µM
